Where these numbers come from: ChEMBL document CHEMBL1201862

The entries below are paired with their reported GI50.
# Tested on: CAKI-1
# experimentNotes: NCI tumour cell line growth inhibition, 48 h
The source made the active and inactive calls. No stated cut-off is given here; in the data, active = GI50 up to about 1.1 µM and inactive = higher.

Example entries begin here.
- molecule: "CCC(C)OC(=O)C1C2CCC(O2)C1C(=O)O (stereo not given)"
  tgt: "CAKI-1"
  GI50: "> 100 µM (inactive)"
- molecule: "CC(O)C(O)C(O)C(/C=N\\Nc1ccccc1)=N/Nc1ccccc1 (stereo not given)"
  tgt: "CAKI-1"
  GI50: "2.18 µM (inactive)"
- molecule: "NC(=O)c1cc2ccccc2o/c1=N/O"
  tgt: "CAKI-1"
  GI50: "27.9 µM (inactive)"
- molecule: "Cc1ccc(CNc2ccc(Br)cc2)cc1"
  tgt: "CAKI-1"
  GI50: "31.6 µM (inactive)"
- molecule: "CCCCCCCC(CC(=O)NC(CO)C(=O)NC(CO)CC(C)C)OC(=O)CC(CCCCCCC)OC(=O)CC(CCCCCCC)OC1OC(C)C(O)C(OC2OC(C)C(O)C(OC(C)=O)C2O)C1O (stereo not given)"
  tgt: "CAKI-1"
  GI50: "15.7 µM (inactive)"

Then this molecule:
Q) Name the recorded GI50 for Cc1ccc(S(=O)(=O)NC(=N)N(C)N=O)cc1 .
A) > 100 µM (inactive)

---

# Test system: COLO 205
# experimentNotes: NCI tumour cell line growth inhibition, 48 h
Activity calls are given as the source filed them. No stated cut-off is given here; in the data, active = GI50 up to about 1.1 µM and inactive = higher.
Consider the following compounds and their measured GI50 readings.

- compound: "N#CSCc1nc2ccc(Cl)cc2c(-c2ccccc2)[n+]1[O-]"
  obsValue: "60.1 µM (inactive)"

Q) GET /values?readout=GI50&item= c1ccc2c(c1)N=C(c1cccc3ccccc13)CC(c1cccc3ccccc13)S2 (stereo unspecified)
A) 12.9 µM (inactive)

---

Listed here are molecules together with their documented GI50.
# Tested on: U-251
# experimentNotes: NCI tumour cell line growth inhibition, 48 h
The source made the active and inactive calls. Cut-off read from the data, not from the text of the source: active = GI50 up to about 1.1 µM and inactive = higher.

Below are worked cases with known answers.
- molecule: "COc1ccc(/C=C2\\N=C(SC)NC2=O)cc1"
  GI50: "90.6 µM (inactive)"
- molecule: "C/C(=N\\Nc1nc2ccccc2s1)c1ccc2ccccc2n1"
  GI50: "> 100 µM (inactive)"
- molecule: "Cc1ccc(C(=O)N2CCN(C(=O)c3ccc(C)cc3)c3ccccc32)cc1"
  GI50: "1.9 µM (inactive)"
- molecule: "CCCCCCCC(CC(=O)NC(CO)C(=O)NC(CO)CC(C)C)OC(=O)CC(CCCCCCC)OC(=O)CC(CCCCCCC)OC1OC(C)C(O)C(OC2OC(C)C(O)C(OC(C)=O)C2O)C1O (stereo not given)"
  GI50: "4.2 µM (inactive)"
- molecule: "CC1(C)OCC(C2OC(OC(=O)c3ccc([N+](=O)[O-])cc3)C3OC(C)(C)OC23)O1 (stereo not given)"
  GI50: "49 µM (inactive)"
- molecule: "COC(=O)/C=C/c1c(CC=C(C)C)ncn1C"
  GI50: "19.1 µM (inactive)"
- molecule: "CC1=NN(C(=O)CC(=O)Nc2ccccc2)C(=O)C1/N=N/c1ccc(C(=O)O)cc1 (stereo not given)"
  GI50: "97.3 µM (inactive)"
- molecule: "CC1(C)C(=O)C2(OS(=O)(=O)C(F)(F)F)CCC1C2 (stereo not given)"
  GI50: "> 100 µM (inactive)"
- molecule: "COc1cc2cc(C(=O)N3CC(CCl)c4c3cc([N+](=O)[O-])c3ccccc43)[nH]c2c(OC)c1OC (stereo not given)"
  GI50: "25.8 µM (inactive)"
- molecule: "CCOP(=O)(OCC)/C(=C\\n1c(=S)[nH]c2cc(C)ccc21)C(=O)OC"
  GI50: "> 100 µM (inactive)"

Q) Short answer please: GI50, U-251, entry COc1cc(/C=C/C2=NN(c3cccc(S(=O)(=O)O)c3)C3(C2)SCC(=O)N3c2nc3ccccc3s2)cc(OC)c1OC (stereo not given)
A) 33 µM (inactive)

Q) Next molecule: c1ccc2c(c1)OC(N1CCCC1)c1cnc(N3CCCC3)nc1-2 (stereo not given)
A) 45.9 µM (inactive)

Q) Also, O=C(N[C@@H](c1ccccc1)[C@@H](O)C(=O)OCc1ccc([N+](=O)[O-])cc1)c1ccccc1 please.
A) > 100 µM (inactive)

Q) Next molecule: COc1c(-c2ccc(O)c(O)c2)oc2c(O)c(O)cc(O)c2c1=O
A) 34.8 µM (inactive)

Q) What would you report for COC1(CC[C@@H](C)COC2OC(CO)C(O)C(O)C2O)O[C@H]2C[C@H]3[C@@H]4CC=C5C[C@@H](OC6OC(CO)C(OC7OC(C)C(O)C(O)C7O)C(O)C6OC6OC(C)C(O)C(O)C6O)CC[C@]5(C)[C@H]4CC[C@]3(C)[C@H]2[C@@H]1C (stereo not given in full) ?
A) 1.81 µM (inactive)

Q) // query: Cc1ccc2c(ccc(/C=C\c3cc(C)c4cccnc4c3O)[n+]2C)c1
A) 1.75 µM (inactive)

Q) Do the same for CCN(CC)CC[S+]([O-])c1c2cc(OC)ccc2nc2ccc(OC)cc12 (stereo not given) please
A) 20 µM (inactive)

Q) Query Cc1ccc(S(=O)(=O)N/N=C2\CCCCC23CCC(=O)NC3)cc1 (stereo not given) next
A) > 100 µM (inactive)

Q) Would you kindly repeat that for COc1ccc2c(c1)Oc1cc(O)ccc1[C@@H]2c1ccccc1C(=O)NC(C)c1ccccc1 (stereo not given in full) ?
A) 15 µM (inactive)

Q) Request: CC(C)c1cc(Cl)nc(Cl)n1
A) > 100 µM (inactive)
